- TEST PROTOCOL: qHTS assay for small molecules that induce genotoxicity in human embryonic kidney cells expressing luciferase-tagged ATAD5 - cell viability (AID 651634); also: nearly all actives have a fitted effect of over 25% in size
- REPORTED CONDITIONS: HEK293T ATAD5-luc cells viability, CellTiter-Fluor, 15.5 h; series mostly up to 83.3 µM
Results filed as inconclusive are left out. Active and inactive are the calls of the source. Calls follow the shape of the full dose curve.
Choose one outcome from this list and give only that: Y = active, N = inactive

Request: Could you kindly confirm the outcome this assay logged for C#CCN1CC(=O)N(COC(=O)C2C(C=C(C)C)C2(C)C)C1=O (stereo unspecified) ?
Result: N

Request: For `COc1cc([C@@H]2c3cc4c(cc3[C@@H](O)[C@H]3COC(=O)[C@H]23)OCO4)cc(OC)c1O` then?
Result: Y

Request: For CCNC(C)Cc1cccc(C(F)(F)F)c1 (stereo unspecified) then?
Result: N

Request: For `Cc1nnc2n1-c1ccc(Cl)cc1C(c1ccccc1)=NC2` then?
Result: N

Request: For `Cc1nnc2n1-c1sc(Br)cc1C(c1ccccc1Cl)=NC2` then?
Result: N

Request: For CCNCC(O)c1cccc(O)c1 (stereo unspecified) then?
Result: N

* * *

- TEST PROTOCOL: qHTS assay for identifying genotoxic compounds that show differential cytotoxicity against isogenic chicken DT40 cell lines with known DNA damage response pathways - wild type cell line (AID 743012); also: nearly all actives have a fitted effect of over 60% in size
- REPORTED CONDITIONS: DT40 wild type chicken cells viability, CellTiter-Glo, 40 h; series mostly up to 68.4 µM
Records with an inconclusive call do not appear. The source made the active and inactive calls. Calls follow the shape of the dose curve; as a rule, active = well fitted cell-killing curve with a large enough effect in the repeat runs; inconclusive = weak or mixed curves, or effect the other way; inactive = no such curve, though single readings can be large or run the other way.
Choose one outcome from this list and give only that: active, inactive

Request: Could you kindly confirm the outcome this assay logged for `O=C(C[C@@H]1NCCC[C@H]1O)Cn1cnc2cc(Br)c(Cl)cc2c1=O` ?
Result: inactive

Request: For `Cc1ccc(N(SC(F)(Cl)Cl)S(=O)(=O)N(C)C)cc1` then?
Result: active

Request: For CCNCC(O)c1cccc(O)c1 (stereo not drawn) then?
Result: inactive

Request: For CNC1(c2ccccc2Cl)CCCCC1=O (stereo not drawn) then?
Result: inactive

Request: For C#CC(C)(O)CC (stereo not drawn) then?
Result: inactive

Request: For `CC[N+](C)(CC)CCOC(=O)C(O)(c1ccccc1)c1ccccc1` then?
Result: inactive

Request: For NC1=NC(=O)N2CC12 (stereo not drawn) then?
Result: inactive

Request: For C1CN(P2(N3CC3)=NP(N3CC3)(N3CC3)=NP(N3CC3)(N3CC3)=N2)CCO1 (stereo not drawn) then?
Result: active

Request: For `CC1(C)[C@H](C=C(Cl)Cl)[C@H]1C(=O)OCc1c(F)c(F)cc(F)c1F` then?
Result: inactive

Request: For `c1ccccc1` then?
Result: inactive

Request: For CC1COC(Cn2cncn2)(c2ccc(Oc3ccc(Cl)cc3)cc2Cl)O1 (stereo not drawn) then?
Result: active

Request: For `C/C=C(\CC)C(=O)NC(N)=O` then?
Result: inactive

Request: For `CCCN1CCC[C@H](c2cccc(O)c2)C1` then?
Result: inactive

* * *

- TARGET DESC: Nuclear receptor subfamily 1 group I member 2 (Rattus norvegicus) (UniProt Q9R1A7)
- Sequence (Q9R1A7 whole entry, looked up): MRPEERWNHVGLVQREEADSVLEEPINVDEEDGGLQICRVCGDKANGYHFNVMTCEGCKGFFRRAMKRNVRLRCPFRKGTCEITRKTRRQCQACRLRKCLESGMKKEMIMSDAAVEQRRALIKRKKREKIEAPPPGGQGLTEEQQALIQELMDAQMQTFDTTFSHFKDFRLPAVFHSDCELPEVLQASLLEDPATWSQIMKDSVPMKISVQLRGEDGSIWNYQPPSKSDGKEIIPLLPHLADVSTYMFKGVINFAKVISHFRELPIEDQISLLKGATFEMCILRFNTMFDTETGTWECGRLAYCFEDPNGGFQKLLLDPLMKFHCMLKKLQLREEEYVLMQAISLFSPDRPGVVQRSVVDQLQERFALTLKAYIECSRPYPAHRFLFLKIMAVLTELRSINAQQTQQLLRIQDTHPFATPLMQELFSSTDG
- TEST PROTOCOL: Rat pregnane X receptor (rPXR) activation by small molecules, qHTS assay (AID 1346983); also: % is scaled to controls: 0 for no effect and ±100 for the full control effect; nearly all actives have a fitted effect of over 20% in size
- REPORTED CONDITIONS: rPXR luciferase reporter cells, One-Glo luminescence, 24 h; hits give high values
Inconclusive results are not listed.
MEASURED QUANTITY: max activation (%)
State just the number; it will be interpreted in %.

Request: Report max activation for `C[C@]12CC[C@H]3[C@@H](CCC4=C(Cl)C(=O)CC[C@@]43C)[C@@H]1CC[C@@H]2O` please.
Result: -0.226

Request: For `Cc1nnc2n1-c1ccc(Cl)cc1C(c1ccccc1)=NC2` then?
Result: -0.769

Request: For `N#CC1(N2CCCCC2)CCCCC1` then?
Result: -1.32

Request: For O=C1CCCCC1CN1CCCCC1 (stereo unspecified) then?
Result: -4.76

Request: For COC([CH2][Hg])CNC(=O)c1ccccc1OCC(=O)O (stereo unspecified) then?
Result: 7.87

Request: For `CCN1C[C@]2(COC)[C@H](O)C[C@H](OC)[C@@]34[C@@H]5C[C@@]6(O)[C@H](OC(=O)c7ccccc7)[C@@H]5[C@@](OC(C)=O)([C@@H]([C@H](OC)[C@H]23)[C@@H]14)[C@@H](O)[C@@H]6OC` then?
Result: -1.75

Request: For `Oc1cc[c]([Hg][Cl])cc1` then?
Result: -21.4

Request: For `COc1ccc2c3c1O[C@H]1C(=O)CC[C@H]4[C@@H](C2)N(C)CC[C@]314` then?
Result: -2.81

Request: For `O=C(C[C@@H]1NCCC[C@H]1O)Cn1cnc2cc(Br)c(Cl)cc2c1=O` then?
Result: 5.28

Request: For `COC1=CC=C2[C@H]3Cc4ccc(OC)c5c4[C@@]2(CCN3C)[C@H]1O5` then?
Result: -7.33

Request: For `CCON=O` then?
Result: -2.18
